Ref: patent US9856216B2

Molecular target: TNIK (Homo sapiens)
Construct: purchased Promega V4158
Sequence (Q9UKE5 1-367 limits assumed): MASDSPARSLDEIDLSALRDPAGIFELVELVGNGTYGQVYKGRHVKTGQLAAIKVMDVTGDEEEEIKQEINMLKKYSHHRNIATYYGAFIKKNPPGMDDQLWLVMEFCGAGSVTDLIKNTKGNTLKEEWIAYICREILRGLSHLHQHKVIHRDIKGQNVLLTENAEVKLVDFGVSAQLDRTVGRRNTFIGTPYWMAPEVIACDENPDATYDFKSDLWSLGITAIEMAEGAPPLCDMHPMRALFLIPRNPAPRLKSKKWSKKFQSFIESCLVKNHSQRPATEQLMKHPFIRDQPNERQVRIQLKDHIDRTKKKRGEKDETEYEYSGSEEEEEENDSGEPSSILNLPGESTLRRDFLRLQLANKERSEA
Assay: ADP-Glo Kinase Assay, inhibition activity on TNIK
Format: biochemical
Settings: read-out: TNIK
pIC50: −log10 of the molar value.
MEASUREMENT_LABEL: pIC50

# annotated cases, reported pIC50 shown
# STRUCTURE_SMILES_STRING, TARGET_SYSTEM, REPORTED
records = [
    ("O=C(Nc1ccc(-c2ccc(F)cc2F)c2c1C(=O)NC2)c1ccccc1", "TNIK (Homo sapiens)", "< 4.70"),
    ("O=C(Nc1ccc(C(=O)N2CCCC2)c2c1C(=O)NC2)c1ccc(NCCN2CCCC2)cc1", "TNIK (Homo sapiens)", "< 4.70"),
]

From here, focus on the item given below.
Query :: Data request, read-out pIC50, for `O=C(Nc1ccc(-c2ccccc2)c2c1C(=O)NC2)c1ccc(Cl)cc1Cl`
Result :: < 4.70
